- assayed system: T1, cynomolgus recombinant NKG2D-Fc (cynomolgus; human, UniProt P61252 73-216)
- T1 construct: extracellular domain; also called cynomolgus NKG2D-Fc; not shown: human IgG1 Fc domain
- T1 sequence (looked up): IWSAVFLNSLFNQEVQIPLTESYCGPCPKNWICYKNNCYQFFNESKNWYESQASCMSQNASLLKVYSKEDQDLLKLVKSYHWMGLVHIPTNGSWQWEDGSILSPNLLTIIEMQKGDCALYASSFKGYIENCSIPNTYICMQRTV
- method summary: ELISA on coated NKG2D-Fc;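 also: titrated NKG2D binders added to plates coated with human, mouse or cynomolgus NKG2D ectodomain–human IgG1 Fc fusions, detected by HRP anti-human kappa antibody with TMB, absorbance at 450 nm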

binder: ADI-29405 (antibody, V domains shown) VH: QVQLQQWGAGLLKPSETLSLTCAVYGGSFSGYYWSWIRQPPGKGLEWIGEIDHSGSTNYNPSLKSRVTISVDTSKNQFSLKLSSVTAADTAVYYCARARGPWSFDPWGQGTLVTVSS VL: DIQMTQSPSTLSASVGDRVTITCRASQSISSWLAWYQQKPGKAPKLLIYKASSLESGVPSRFSGSGSGTEFTLTISSLQPDDFATYYCQQYGSFPTFGGGTKVEIK
binding result: binds
//
binder: ADI-28226 (antibody, V domains shown, also called C26) VH: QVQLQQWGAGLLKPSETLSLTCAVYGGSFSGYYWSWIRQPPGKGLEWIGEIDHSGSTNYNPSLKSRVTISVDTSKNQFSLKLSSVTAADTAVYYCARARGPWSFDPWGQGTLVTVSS VL: DIQMTQSPSTLSASVGDRVTITCRASQSISSWLAWYQQKPGKAPKLLIYKASSLESGVPSRFSGSGSGTEFTLTISSLQPDDFATYYCQQYGSFPITFGGGTKVEIK
binding result: binds

The measurements presented in this section are drawn from patent US20200002436A1.
